Reference source for all entries: patent US20250019454A1

Reported percentage of tested cells that had Streptavidin signals values for the following binders.
Target: T1, human TNFR2 (expressed on cells) (human, UniProt P20333 23-461)
T1 construct: also called hTNFR2; human TNF Receptor 2
T1 sequence: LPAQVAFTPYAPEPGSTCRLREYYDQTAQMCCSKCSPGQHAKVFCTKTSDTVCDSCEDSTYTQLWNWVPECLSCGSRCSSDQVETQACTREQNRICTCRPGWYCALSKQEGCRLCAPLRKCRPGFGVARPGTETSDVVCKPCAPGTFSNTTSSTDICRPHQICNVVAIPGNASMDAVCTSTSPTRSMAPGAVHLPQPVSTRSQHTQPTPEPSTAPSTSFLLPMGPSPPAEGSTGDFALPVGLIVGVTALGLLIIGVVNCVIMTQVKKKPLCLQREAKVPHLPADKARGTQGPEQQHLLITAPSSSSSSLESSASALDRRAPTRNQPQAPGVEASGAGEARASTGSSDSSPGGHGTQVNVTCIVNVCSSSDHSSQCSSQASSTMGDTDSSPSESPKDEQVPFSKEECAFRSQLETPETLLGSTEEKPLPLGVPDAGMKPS
Test: flow cytometry competition, CHO cells with human TNFR2, antibody 2.5 µg/mL, Biotin-hTNFα 0.5 µg/mL
Give just the number in %; leave the unit off.

# annotated cases, reported percentage of tested cells that had Streptavidin signals shown
>>> result_number("BC-1B6-IgG1 (antibody, V domains shown, Human VH/VL joined to the human IgG1 subtype) VH: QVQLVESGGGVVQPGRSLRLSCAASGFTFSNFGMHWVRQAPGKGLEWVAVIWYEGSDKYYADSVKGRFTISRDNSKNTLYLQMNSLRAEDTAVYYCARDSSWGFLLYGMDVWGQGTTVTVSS VL: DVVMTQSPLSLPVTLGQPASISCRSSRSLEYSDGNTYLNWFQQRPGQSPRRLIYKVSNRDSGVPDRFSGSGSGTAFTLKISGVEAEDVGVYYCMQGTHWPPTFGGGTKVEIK")
87.2
>>> result_number("BC-1C3-IgG1 (antibody, V domains shown, Human VH/VL joined to the human IgG1 subtype) VH: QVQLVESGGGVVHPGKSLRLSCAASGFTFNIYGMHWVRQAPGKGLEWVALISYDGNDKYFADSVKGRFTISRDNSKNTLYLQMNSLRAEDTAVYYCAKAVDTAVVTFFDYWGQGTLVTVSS VL: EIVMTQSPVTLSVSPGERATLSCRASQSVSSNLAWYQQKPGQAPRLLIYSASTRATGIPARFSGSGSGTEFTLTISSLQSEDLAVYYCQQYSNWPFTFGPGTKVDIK")
81.5

q: So what does the record say about percentage of tested cells that had Streptavidin signals for BC-1A8-IgG1 (antibody, V domains shown, Fully human VH/VL joined to the human IgG1 subtype, kappa light chain (RenMab mice)) VH: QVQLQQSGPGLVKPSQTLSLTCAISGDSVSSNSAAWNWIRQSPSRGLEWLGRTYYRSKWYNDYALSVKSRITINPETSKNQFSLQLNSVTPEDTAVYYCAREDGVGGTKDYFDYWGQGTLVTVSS VL: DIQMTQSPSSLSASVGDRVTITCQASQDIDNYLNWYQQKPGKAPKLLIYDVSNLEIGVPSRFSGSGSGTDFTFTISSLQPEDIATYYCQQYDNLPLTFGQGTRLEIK ?
a: 29.9

q: Request the reported percentage of tested cells that had Streptavidin signals associated with BC-1F4-IgG1 (antibody, V domains shown, Human VH/VL joined to the human IgG1 subtype) VH: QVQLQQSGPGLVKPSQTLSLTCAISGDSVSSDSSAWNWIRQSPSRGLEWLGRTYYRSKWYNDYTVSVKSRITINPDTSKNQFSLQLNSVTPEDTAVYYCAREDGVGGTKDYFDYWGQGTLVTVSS VL: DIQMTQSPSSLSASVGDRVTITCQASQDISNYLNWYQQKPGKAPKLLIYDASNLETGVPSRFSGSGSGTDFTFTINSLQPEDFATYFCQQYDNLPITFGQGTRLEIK
a: 59.5
